pIC50: −log10 of the molar value.
Literature survey of pIC50 (system: BTK (Homo sapiens, UniProt Q06187)).
Sequence (Q06187 whole entry): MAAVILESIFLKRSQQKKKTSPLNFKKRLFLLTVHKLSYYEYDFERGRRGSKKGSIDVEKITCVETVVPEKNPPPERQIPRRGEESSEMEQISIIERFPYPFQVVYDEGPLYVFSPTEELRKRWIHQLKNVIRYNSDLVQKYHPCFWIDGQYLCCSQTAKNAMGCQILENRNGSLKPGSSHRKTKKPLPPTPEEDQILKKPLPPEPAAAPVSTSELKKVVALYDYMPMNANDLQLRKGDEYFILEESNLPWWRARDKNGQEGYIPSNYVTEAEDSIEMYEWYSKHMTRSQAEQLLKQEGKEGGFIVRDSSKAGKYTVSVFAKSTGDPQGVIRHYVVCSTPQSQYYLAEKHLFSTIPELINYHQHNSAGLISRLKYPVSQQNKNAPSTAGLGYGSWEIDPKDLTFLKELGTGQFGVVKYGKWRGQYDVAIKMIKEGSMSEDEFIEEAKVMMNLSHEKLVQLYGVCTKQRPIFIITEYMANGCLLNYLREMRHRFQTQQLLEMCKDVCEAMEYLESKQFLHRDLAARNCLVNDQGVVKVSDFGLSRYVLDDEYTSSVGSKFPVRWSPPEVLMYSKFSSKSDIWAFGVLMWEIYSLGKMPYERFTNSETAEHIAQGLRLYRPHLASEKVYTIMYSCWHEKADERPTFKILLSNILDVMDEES

Example cases with answers are listed next.
COMPOUND | TARGET OR SYSTEM | RESULT
Cc1ccc(C)c(NCC(=O)N[C@@H]2CCCN(c3ncnc4[nH]ccc34)C2)c1 | BTK (Homo sapiens, UniProt Q06187) | 5.00 to 6.00
C=CC(=O)Nc1cccc(-c2cc(-c3ccc(Oc4ccccc4)nc3)cc3cncnc23)c1 | BTK (Homo sapiens, UniProt Q06187) | > 7.00
Cn1cc(-c2cnc3[nH]cc(C(=O)c4cccc(NS(=O)(=O)C5CC5)c4)c3c2)cn1 | BTK (Homo sapiens, UniProt Q06187) | ≥ 5.00
C=CC(=O)N1CCCC(n2nc(/C=C/c3ccccn3)c3c(N)ncnc32)C1 (centres unmarked) | BTK (Homo sapiens, UniProt Q06187) | 9.34
CNC/C=C/C(=O)N1CC[C@@H](n2nc(-c3ccc(C(=O)Nc4cc(C)ccn4)cc3)c3c(N)ncnc32)C1 | BTK (Homo sapiens, UniProt Q06187) | > 9.00

Record N#C/C(=C\C1CC1)C(=O)N1CCC[C@@H](n2cc(-c3ccc(Oc4ccccc4)cc3)c3c(N)n[nH]c(=O)c32)C1 , field pIC50: 6.00 to 8.00

Record COc1cnc2[nH]cc(C(=O)c3cccc(NS(=O)(=O)C4CCCCC4)c3)c2c1 , field pIC50: ≥ 5.00

Record CC(C)c1ccccc1N[C@@H](C(=O)N[C@@H]1CCCN(c2ncnc3[nH]ccc23)C1)[C@H](C)O , field pIC50: 6.00 to 7.00

###

pIC50: −log10 of the molar value.
Literature survey of pIC50 (system: BTK (Homo sapiens, UniProt Q06187)).

Example cases with answers are listed next.
MOLECULE | pIC50
Cn1cc(-c2cn3nccc3c(-c3ccc(CNC(=O)c4noc(C(C)(C)C)n4)c(F)c3)n2)cn1 | > 9.00
CC(C)n1ccc(NCC(=O)NC2CCCN(c3ncnc4[nH]ccc34)C2)n1 (centres unmarked) | < 5.00
CCC(=O)Nc1cccc(-c2cc3nccc(Oc4ccccc4)c3o2)c1 | 4.30 to 5.52
O=C(NCc1ccc(-c2ncnc3[nH]ncc23)cc1C(F)(F)F)c1nc2c(s1)CCCC2 | 7.00 to 8.00

Please find the next molecule below.
Value sought: pIC50, system BTK (Homo sapiens, UniProt Q06187), item C=CC(=O)Nc1cccc(Nc2cc(Oc3ccc(OC)cc3)ncn2)n1 . Result: ≥ 8.00

###

Literature survey of pIC50 (system: BTK (Homo sapiens)).
pIC50: −log10 of the molar value.

Example cases with answers are listed next.
COMPOUND | RESULT
CCCc1ccnc(NC(=O)c2ccc(-c3nn([C@@H]4CCCN(C(=O)/C=C/CN(C)C5CC5)C4)c4ncnc(N)c34)cc2)c1 | > 9.00
C=CC(=O)N1CCC[C@H](n2nc(-c3ccc(C(=O)Nc4ccccn4)cc3)c3c(N)nccc32)C1 | 8.46
COc1ccc(CNc2ccc(Cc3c[nH]c4ncncc34)c(F)n2)cn1 | ≥ 5.00

Value sought: pIC50, system BTK (Homo sapiens), item Cc1cccc(Cl)c1Nc1nccn1-c1cc(Nc2cnn(C)c2)ncn1 . Result: < 5.00

Value sought: pIC50, system BTK (Homo sapiens), item COCCn1cc(Nc2nccc(-c3ccc4c(c3)CCCCC4NC(=O)N3CC(OC(C)(C)C)C3)n2)cn1 (stereo not drawn) . Result: > 8.00

Value sought: pIC50, system BTK (Homo sapiens), item CC(C)CN1CCN(Cc2ccc(-c3nc(-c4cnn(C)c4)cn4nccc34)cc2F)C(=O)C1 . Result: 8.00 to 9.00

Value sought: pIC50, system BTK (Homo sapiens), item Nc1ncnc2c1c(-c1ccc(Br)c(O)c1)nn2C1CCc2ccccc2C1 (stereo not drawn) . Result: 7.58

Value sought: pIC50, system BTK (Homo sapiens), item Cc1c(-c2ccc(Oc3cccc(F)c3)cc2)c2c(N)ncnc2n1[C@@H]1CCN(C(=O)/C=C/CN(C)C2CC2)C1 . Result: > 7.00

Value sought: pIC50, system BTK (Homo sapiens), item Cc1cc(-c2cc(Nc3ccc(N4CCN(C)CC4)cn3)ncn2)ccc1CNC(=O)c1cnn(C(C)(C)C)c1 . Result: > 8.00

Value sought: pIC50, system BTK (Homo sapiens), item CN(C)Cc1ccc(Nc2nn(-c3cccc(-n4ncc5cc(C(C)(C)C)ccc5c4=O)c3CO)cc2C(N)=O)nc1 . Result: 9.41

Value sought: pIC50, system BTK (Homo sapiens), item C=CC(=O)N1CCC[C@@H](n2cc(-c3ccc(Oc4ccccc4)cc3F)c3c(N)n[nH]c(=O)c32)C1 . Result: 6.00 to 8.00

Value sought: pIC50, system BTK (Homo sapiens), item CC(C)(C)c1ccc(C(=O)NC2COCc3cc(-c4ncnc5[nH]ccc45)ccc32)nc1 (stereo not drawn) . Result: 6.00 to 7.00

###

Literature survey of IC50 (system: BTK (Homo sapiens)).

Example cases with answers are listed next.
STRUCTURE NOTATION | TARGET OR SYSTEM | RESULT
C=CC(=O)Nc1cccc(-c2cc(-c3ccc(Oc4ccccn4)cc3)cc3cncnc23)c1 | BTK (Homo sapiens) | < 100 nM
Cc1cc(Oc2ccccc2)ccc1-n1c(=O)n(-c2cccc(N(C)C(=O)/C=C/CN(C)C3CC3)c2)c2ncnc(N)c21 | BTK (Homo sapiens) | < 100 nM
O=C([C@H](Nc1cc(F)cc(Cl)c1)C1CC1)N1CCC[C@H](Nc2ncnc3[nH]ncc23)C1 | BTK (Homo sapiens) | 1000 to 10000 nM

Please find the next compound below.
Value sought: IC50, system BTK (Homo sapiens), item CCCCS(=O)(=O)Nc1ccc(F)c(C(=O)c2c[nH]c3ncc(-c4cnn(C)c4)cc23)c1F . Result: ≤ 10000 nM

###

Literature survey of IC50 (system: BTK (Homo sapiens, UniProt Q06187)).

COMPOUND | IC50
C=CC(=O)N1CCC[C@@H](n2nc(C(=O)Nc3ccccc3)c3c(N)ncc(Cl)c32)C1 | 22.1 nM

Value sought: IC50, system BTK (Homo sapiens, UniProt Q06187), item C=CC(=O)N1CC[C@]2(C1)C[C@H](n1c(NC(=O)c3cc(-c4ccccc4)no3)nc3cc(CN4CCCC4)ccc31)C2 . Result: 25.7 nM

Value sought: IC50, system BTK (Homo sapiens, UniProt Q06187), item COc1ccc(-c2nc3ccc(-c4cccc5c(N)c(C(N)=O)nnc45)cc3[nH]2)cc1 . Result: 79.4 nM

Value sought: IC50, system BTK (Homo sapiens, UniProt Q06187), item C=CC(=O)N1CC[C@]2(C1)C[C@H](n1c(NC(=O)c3ccc(C#N)cc3)nc3ccccc31)C2 . Result: 4.37 nM

Value sought: IC50, system BTK (Homo sapiens, UniProt Q06187), item CCOC1CN(C(=O)NC2CCCCc3cc(-c4ccnc(Nc5cnn(C)c5)n4)ccc32)C1 (stereo not drawn) . Result: < 10 nM

Value sought: IC50, system BTK (Homo sapiens, UniProt Q06187), item Cc1cc(-c2cc(Nc3cc4c(cn3)CN(C)CC4)ncn2)ccc1CNC(=O)c1cnc(C(C)(C)C)s1 . Result: < 10 nM

Value sought: IC50, system BTK (Homo sapiens, UniProt Q06187), item C=CC(=O)N1CCC(c2nc(-c3ccc(C(=O)Nc4cc(C(F)(F)F)ccn4)cc3)n3c(N)nccc23)C1 (stereo not drawn) . Result: < 100 nM

Value sought: IC50, system BTK (Homo sapiens, UniProt Q06187), item O=C(CNc1c(F)cc(F)cc1F)N[C@@H]1CCCN(c2ncnc3[nH]ccc23)C1 . Result: 1000 to 10000 nM

Value sought: IC50, system BTK (Homo sapiens, UniProt Q06187), item Nc1nccc(-c2cnc(CNC(=O)c3cc4c(s3)CCCC4)c(F)c2)n1 . Result: 100 to 999 nM
